Data origin, for the record: the RNAGym collection of RNA variant scans (doi:10.7554/elife.90254)

B1: OR4K15 (parent)
chain: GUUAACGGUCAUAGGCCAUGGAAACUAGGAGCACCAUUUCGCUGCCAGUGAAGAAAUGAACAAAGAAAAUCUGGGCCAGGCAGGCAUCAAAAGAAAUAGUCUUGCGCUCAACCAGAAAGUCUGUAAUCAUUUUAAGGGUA

variants of: B1; assay: self-cleavage, relative activity (ratio to wild type); higher = more cleavage; in vitro, sequencing; the parent is a self-cleaving ribozyme
As shown below, each of these variants has a reported self-cleavage value.
Number, no unit, nothing else.

Below, 10 variants whose answers are already recorded.
mutationKey: A68G U100C
endpointValue: 1.42
//
mutationKey: A92G G106U
endpointValue: 0.01
//
mutationKey: A110G A125C
endpointValue: 0.17
//
mutationKey: U39C C107A
endpointValue: 0.03
//
mutationKey: A22G C46U
endpointValue: 1.36
//
mutationKey: A54U U127C
endpointValue: 0.18
//
mutationKey: U39C A68U
endpointValue: 2.09
//
mutationKey: U100C G136A
endpointValue: 2.45
//
mutationKey: G14A U70C
endpointValue: 0.96
//
mutationKey: U97A A126U
endpointValue: 1.01

Problem: # self-cleavage lookup, item U103A A110U
Solution: 0.62

Problem: Entry U87C A89G has what self-cleavage?
Solution: 1.73
